system: DIV14; experiment: qHTS profiling for inhibitors of Plasmodium falciparum proliferation (AID 504749); also: nearly all actives have a fitted effect of over 60% in size; settings: P. falciparum in erythrocytes, SYBR Green DNA, 72 h; series mostly up to 28.7 µM
Results filed as inconclusive are left out. Activity calls are given as the source filed them. Calls follow the shape of the dose curve; as a rule, active = well fitted inhibition curve with a large enough effect; inconclusive = small, poorly fitted or top-dose-only effect; inactive = flat fitted curve, though single readings scatter.
// one of TRUE = active, FALSE = inactive, no free text

O=c1[nH]cnc2c1ncn2[C@H]1CC[C@@H](CO)O1
FALSE
O=C1NCC2(CCN(CCc3ccccc3)CC2)O1
FALSE
O=C(O)c1c(Cl)c(Cl)c(Cl)c(Cl)c1-c1c2cc(I)c(=O)c(I)c-2oc2c(I)c(O)c(I)cc12
FALSE
C[N+](C)(C)CCCCCC[N+](C)(C)C
FALSE
CC1=C(/C=C/C(C)=C/C=C/C(C)=C/C(=O)Nc2ccc(O)cc2)C(C)(C)CCC1
TRUE
C[C@@H](O)[C@H]1C(=O)N2C(C(=O)O)=C(S[C@@H]3CN[C@H](C(=O)N(C)C)C3)[C@H](C)[C@H]12
FALSE

Problem: Could you please tell me the result logged for O=C(O)c1cc(-c2ccccc2)nc2ccccc12 in this assay?
Result: FALSE
